system-tested: human histamine H3 receptors (Homo sapiens, UniProt Q9Y5N1)
Construct: human histamine H3 receptors (full-length H3, the most prevalent brain isoform 445)
Sequence (Q9Y5N1 whole entry, canonical isoform): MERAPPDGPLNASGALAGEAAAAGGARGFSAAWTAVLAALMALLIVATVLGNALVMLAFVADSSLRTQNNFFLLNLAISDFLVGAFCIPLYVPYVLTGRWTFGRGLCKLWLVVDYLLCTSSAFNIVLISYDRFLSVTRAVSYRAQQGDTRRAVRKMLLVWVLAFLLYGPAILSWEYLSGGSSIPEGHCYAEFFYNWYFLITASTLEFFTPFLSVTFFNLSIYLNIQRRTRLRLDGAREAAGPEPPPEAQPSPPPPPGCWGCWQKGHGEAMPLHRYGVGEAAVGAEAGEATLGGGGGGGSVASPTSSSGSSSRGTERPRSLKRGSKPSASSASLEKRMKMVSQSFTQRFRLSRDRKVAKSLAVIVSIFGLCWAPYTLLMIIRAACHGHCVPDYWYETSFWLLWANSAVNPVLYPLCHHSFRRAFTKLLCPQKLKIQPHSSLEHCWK
protocol-notes: Histamine H3 SPA with [3H]-N-α-methylhistamine and/or GTPγS binding assay
Recorded IC50, one value per entry.
measurement-label: IC50 (nM)

{"columns": ["compound", "measurement-label", "endpoint-unit", "recorded-number"],
 "data": [
  ["O=C(c1nnc(-c2ccccc2)o1)N1CC(Oc2ccc(CN3CC4(COC4)C3)c(Cl)c2)C1", "IC50", "nM", 410],
  ["O=C(c1nnc(-c2ccc(Cl)cc2)o1)N1CC(Oc2ccc(CN3CC4(COC4)C3)cc2)C1", "IC50", "nM", 620],
  ["O=C(c1nnc(-c2ccccc2)o1)N1CC(Oc2ccc(CN3CC4(COC4)C3)cc2)C1", "IC50", "nM", 800]
]}

Data provenance is patent US8110566B2.
